Apparent Clearance Cl listing for selected molecules.
PROCEDURE_TEXT: Pharmacokinetics of the compounds in rats
Assay type: in vivo, rat
CONDITION_SET: male SD rats, single IV; mg/Kg: Comparative Compound 1 1.80, (+)-5 2.40, (+)-16 1.76, HCl salt of (+)-23 1.71
Where a name gives a salt, the structure may show the parent alone.
QUANTITY_MEASURED: Apparent Clearance Cl

| MOLECULE | REPORTED_VALUE |
| --- | --- |
| Fc1ccc([C@]2(CCNCc3cccc(F)c3)CCO[C@]3(CCOC3)C2)nc1 [Hydrochloride Salt of (+)-23] | 113 mL/min/kg |
| Fc1ccc([C@]2(CCNCc3cccc(Cl)c3)CCO[C@]3(CCOC3)C2)nc1 [(+)-16] | 114 mL/min/kg |
| COc1ccsc1CNCC[C@@]1(c2ccccn2)CCOC2(CCCC2)C1 [compound 1, Oliceridine, reference compound] | 74.4 mL/min/kg |
| Fc1ccc([C@]2(CCNCc3scc4c3CCC4)CCO[C@]3(CCOC3)C2)nc1 [(+)-5] | 58.9 mL/min/kg |

###

SYSTEM_NAME: CYP2D6 (Homo sapiens (Human))
Sequence (P10635 whole entry): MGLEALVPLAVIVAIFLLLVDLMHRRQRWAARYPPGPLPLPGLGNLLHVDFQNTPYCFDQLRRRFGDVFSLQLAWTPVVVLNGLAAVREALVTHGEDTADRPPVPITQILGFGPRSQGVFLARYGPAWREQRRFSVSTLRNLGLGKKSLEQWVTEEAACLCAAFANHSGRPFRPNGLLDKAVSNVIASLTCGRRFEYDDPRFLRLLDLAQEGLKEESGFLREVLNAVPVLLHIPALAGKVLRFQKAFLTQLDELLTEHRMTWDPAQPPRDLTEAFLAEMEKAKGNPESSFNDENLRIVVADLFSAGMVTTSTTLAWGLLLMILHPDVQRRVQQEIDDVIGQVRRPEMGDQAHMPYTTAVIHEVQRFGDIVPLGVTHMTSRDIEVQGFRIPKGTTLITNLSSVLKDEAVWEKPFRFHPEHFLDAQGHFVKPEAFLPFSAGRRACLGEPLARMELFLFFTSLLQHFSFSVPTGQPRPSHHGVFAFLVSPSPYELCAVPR
PROCEDURE_TEXT: Inhibition of cytochrome P450 isoenzymes, CYP2D6
Type: in vitro ADME
CONDITION_SET: read-out: CYP 2D6 IC50
pIC50: −log10 of the molar value. Structures can show the parent of a compound that is named as a salt.
QUANTITY_MEASURED: pIC50

| COMPOUND | SYSTEM_NAME | REPORTED_VALUE |
| --- | --- | --- |
| Clc1cccc(CNCC[C@@]2(c3ccccn3)CCO[C@]3(CCOC3)C2)c1 [(+)-8] | CYP2D6 (Homo sapiens (Human)) | 4.76 |
| Fc1cc(Cl)cc(CNCC[C@@]2(c3ccccn3)CCO[C@]3(CCOC3)C2)c1 [(+)-18] | CYP2D6 (Homo sapiens (Human)) | 4.61 |
| Fc1ccc([C@]2(CCNCc3cccc(Cl)c3)CCO[C@]3(CCOC3)C2)nc1 [(+)-16] | CYP2D6 (Homo sapiens (Human)) | 4.90 |
| Cc1cccc(CNCC[C@@]2(c3ccccn3)CCO[C@]3(CCOC3)C2)c1 [(+)-9] | CYP2D6 (Homo sapiens (Human)) | 4.63 |
| c1ccc([C@]2(CCNCc3scc4c3CCC4)CCO[C@]3(CCOC3)C2)nc1 [(+)-2] | CYP2D6 (Homo sapiens (Human)) | 4.33 |
| Fc1ccc([C@]2(CCNCc3cccc(F)c3)CCO[C@]3(CCOC3)C2)nc1 [Hydrochloride Salt of (+)-23] | CYP2D6 (Homo sapiens (Human)) | 4.75 |

###

SYSTEM_NAME: UniProt:P11712
Sequence (P11712 whole entry): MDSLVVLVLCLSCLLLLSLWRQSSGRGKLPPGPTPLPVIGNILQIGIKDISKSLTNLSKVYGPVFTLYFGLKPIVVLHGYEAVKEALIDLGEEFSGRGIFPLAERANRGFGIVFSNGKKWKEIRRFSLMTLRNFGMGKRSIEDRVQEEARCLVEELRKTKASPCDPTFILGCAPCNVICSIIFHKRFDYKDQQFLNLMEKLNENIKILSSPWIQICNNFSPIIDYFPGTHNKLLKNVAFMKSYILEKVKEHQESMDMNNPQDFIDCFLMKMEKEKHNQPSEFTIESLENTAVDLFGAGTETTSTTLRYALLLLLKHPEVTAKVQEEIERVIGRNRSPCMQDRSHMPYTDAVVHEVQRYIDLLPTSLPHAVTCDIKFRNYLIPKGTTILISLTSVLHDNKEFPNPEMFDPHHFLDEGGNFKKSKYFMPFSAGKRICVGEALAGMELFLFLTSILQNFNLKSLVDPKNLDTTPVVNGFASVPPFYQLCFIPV
PROCEDURE_TEXT: Inhibition of cytochrome P450 isoenzymes, CYP2C9
Type: in vitro ADME
CONDITION_SET: >50 μM: inhibitory effect less than 50% at 50 μM; read-out: CYP 2C9 IC50
Where a name gives a salt, the structure may show the parent alone.

| COMPOUND | SYSTEM_NAME | IC50 |
| --- | --- | --- |
| c1ccc([C@]2(CCNCc3scc4c3CCC4)CCO[C@]3(CCOC3)C2)nc1 [(+)-2] | UniProt:P11712 | > 50 µM |
| Clc1cccc(CNCC[C@@]2(c3ccccn3)CCO[C@]3(CCOC3)C2)c1 [(+)-8] | UniProt:P11712 | > 50 µM |
| Fc1ccc([C@]2(CCNCc3cccc(F)c3)CCO[C@]3(CCOC3)C2)nc1 [Hydrochloride Salt of (+)-23] | UniProt:P11712 | > 50 µM |
| Fc1ccc([C@]2(CCNCc3cccc(Cl)c3)CCO[C@]3(CCOC3)C2)nc1 [(+)-16] | UniProt:P11712 | > 50 µM |

###

Emax listing for selected compounds.
SYSTEM_NAME: UniProt:P35372
PROCEDURE_TEXT: MOR β-arrestin-2 agonist activity test
Assay type: cell-based
CONDITION_SET: maximum effect of enkephalin DAMGO was 100%; about 0% = no actual agonist activity
Structures can show the parent of a compound that is named as a salt.
QUANTITY_MEASURED: Emax

| COMPOUND | QUANTITY_MEASURED | REPORTED_VALUE |
| --- | --- | --- |
| COc1ccsc1CNCC[C@@]1(c2ccccn2)CCOC2(CCCC2)C1 [compound 1, Oliceridine, reference compound] | Emax | 4.5% |
| Fc1ccc([C@]2(CCNCc3scc4c3CCC4)CCO[C@]3(CCOC3)C2)nc1 [(+)-5] | Emax | ~0% |
| COc1ccsc1CNCC[C@@]1(c2ccc(F)cc2)CCO[C@]2(CCOC2)C1 [(+)-3] | Emax | ~0% |
| c1ccc([C@]2(CCNCc3scc4c3CCC4)CCO[C@]3(CCOC3)C2)nc1 [(+)-2] | Emax | ~0% |
| Clc1cc(Cl)cc(CNCC[C@@]2(c3ccccn3)CCO[C@]3(CCOC3)C2)c1 [(+)-21] | Emax | ~0% |
| Fc1ccnc([C@]2(CCNCc3scc4c3CCC4)CCO[C@]3(CCOC3)C2)c1 [(+)-6] | Emax | ~0% |
| Cc1cccc(CNCC[C@@]2(c3ccc(F)cn3)CCO[C@]3(CCOC3)C2)c1 [Hydrochloride Salt of (+)-22] | Emax | ~0% |
| Cc1cccc(CNCC[C@@]2(c3ccccn3)CCO[C@]3(CCOC3)C2)c1 [(+)-9] | Emax | ~0% |
| c1ccc([C@]2(CCNCc3cccc4c3CCC4)CCO[C@]3(CCOC3)C2)nc1 [(+)-19] | Emax | ~0% |
| Cc1ccsc1CNCC[C@@]1(c2ccc(F)cc2)CCO[C@]2(CCOC2)C1 [(+)-13] | Emax | ~0% |
| Cc1cc(C)cc(CNCC[C@@]2(c3ccccn3)CCO[C@]3(CCOC3)C2)c1 [(+)-10] | Emax | ~0% |
| c1ccc([C@]2(CCNCc3cccc4c3CCCC4)CCO[C@]3(CCOC3)C2)nc1 [(+)-11] | Emax | ~0% |
| Fc1ccc([C@]2(CCNCc3scc4c3COC4)CCO[C@]3(CCOC3)C2)cc1 [Hydrochloride Salt of (+)-12] | Emax | ~0% |
| Fc1ccc([C@]2(CCNCc3cccc(F)c3)CCO[C@]3(CCOC3)C2)nc1 [Hydrochloride Salt of (+)-23] | Emax | ~0% |
| Fc1cc(Cl)cc(CNCC[C@@]2(c3ccccn3)CCO[C@]3(CCOC3)C2)c1 [(+)-18] | Emax | ~0% |
| Fc1ccc([C@]2(CCNCc3cccs3)CCO[C@]3(CCOC3)C2)cc1 [(+)-14] | Emax | ~0% |
| Clc1cccc(CNCC[C@@]2(c3ccccn3)CCO[C@]3(CCOC3)C2)c1 [(+)-8] | Emax | ~0% |
| Clc1ccc(CNCC[C@@]2(c3ccccn3)CCO[C@]3(CCOC3)C2)cc1Cl [(+)-20] | Emax | ~0% |
| c1ccc([C@]2(CCNCc3scc4c3COC4)CCO[C@]3(CCOC3)C2)nc1 [(+)-7] | Emax | ~0% |

###

SYSTEM_NAME: hERG potassium channels (Homo sapiens (Human))
Sequence (Q12809 whole entry): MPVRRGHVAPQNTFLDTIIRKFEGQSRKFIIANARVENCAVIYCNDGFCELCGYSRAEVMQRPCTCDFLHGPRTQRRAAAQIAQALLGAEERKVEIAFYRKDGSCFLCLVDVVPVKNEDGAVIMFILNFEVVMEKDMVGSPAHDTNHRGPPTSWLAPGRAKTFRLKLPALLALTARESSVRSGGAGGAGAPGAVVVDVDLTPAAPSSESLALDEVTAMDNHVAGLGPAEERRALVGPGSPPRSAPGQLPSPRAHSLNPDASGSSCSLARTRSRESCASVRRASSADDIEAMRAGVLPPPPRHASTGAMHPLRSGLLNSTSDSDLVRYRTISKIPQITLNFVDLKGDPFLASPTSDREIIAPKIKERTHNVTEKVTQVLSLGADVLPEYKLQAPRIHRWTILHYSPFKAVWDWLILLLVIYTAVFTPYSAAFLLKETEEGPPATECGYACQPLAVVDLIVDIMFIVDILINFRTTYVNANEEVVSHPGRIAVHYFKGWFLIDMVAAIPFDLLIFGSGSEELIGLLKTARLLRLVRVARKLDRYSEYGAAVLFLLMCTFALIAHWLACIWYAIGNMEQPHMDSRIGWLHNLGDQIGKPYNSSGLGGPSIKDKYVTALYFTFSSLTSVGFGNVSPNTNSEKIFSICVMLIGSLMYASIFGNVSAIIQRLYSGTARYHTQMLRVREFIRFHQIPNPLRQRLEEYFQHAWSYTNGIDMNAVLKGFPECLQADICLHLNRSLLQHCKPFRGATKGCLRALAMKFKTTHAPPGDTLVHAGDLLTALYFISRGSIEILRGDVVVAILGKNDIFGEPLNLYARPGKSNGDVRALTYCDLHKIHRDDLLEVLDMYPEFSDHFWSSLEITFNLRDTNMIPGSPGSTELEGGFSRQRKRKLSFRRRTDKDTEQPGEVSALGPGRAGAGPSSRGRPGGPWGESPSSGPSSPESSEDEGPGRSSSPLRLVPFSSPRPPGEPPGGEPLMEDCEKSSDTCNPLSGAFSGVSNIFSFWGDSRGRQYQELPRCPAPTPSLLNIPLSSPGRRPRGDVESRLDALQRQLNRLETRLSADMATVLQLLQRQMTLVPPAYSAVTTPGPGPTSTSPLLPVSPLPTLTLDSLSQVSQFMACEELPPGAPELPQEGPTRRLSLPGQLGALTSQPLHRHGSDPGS
PROCEDURE_TEXT: Effects on hERG potassium channels (Qpatch, CHO-hERG cells)
Type: cell-based
CONDITION_SET: highest test concentration 40 μM, read-out: IC50 representing the blocking effects of hERG potassium currents
Structures can show the parent of a compound that is named as a salt.
QUANTITY_MEASURED: IC50 (µM)

| COMPOUND | VALUE_PREFIX | REPORTED_VALUE |
| --- | --- | --- |
| COc1ccsc1CNCC[C@@]1(c2ccccn2)CCOC2(CCCC2)C1 [compound 1, Oliceridine, reference compound] | = | 5.5 |
| Cc1cccc(CNCC[C@@]2(c3ccc(F)cn3)CCO[C@]3(CCOC3)C2)c1 [Hydrochloride Salt of (+)-22] | = | 18.8 |
| Fc1ccc([C@]2(CCNCc3cccc(Cl)c3)CCO[C@]3(CCOC3)C2)nc1 [Hydrochloride Salt of (+)-16] | = | 22.8 |
| c1ccc([C@]2(CCNCc3scc4c3CCC4)CCO[C@]3(CCOC3)C2)nc1 [(+)-2] | > | 40 |

###

Vd listing for selected compounds.
PROCEDURE_TEXT: Pharmacokinetics of the compounds in rats
Assay type: in vivo, rat
CONDITION_SET: male, SD, rat, plasma, iv; read-out: Apparent Distribution Volume Vd
Counter-ions that a name gives are not always drawn.
QUANTITY_MEASURED: Vd (L/kg)

| COMPOUND | REPORTED_VALUE |
| --- | --- |
| COc1ccsc1CNCC[C@@]1(c2ccccn2)CCOC2(CCCC2)C1 [compound 1, Oliceridine, reference compound] | 4.3 |
| Fc1ccc([C@]2(CCNCc3scc4c3CCC4)CCO[C@]3(CCOC3)C2)nc1 [(+)-5] | 3.6 |
| Fc1ccc([C@]2(CCNCc3cccc(Cl)c3)CCO[C@]3(CCOC3)C2)nc1 [(+)-16] | 6.3 |
| Fc1ccc([C@]2(CCNCc3cccc(F)c3)CCO[C@]3(CCOC3)C2)nc1 [Hydrochloride Salt of (+)-23] | 5 |

meta.source: patent US11124523B2
